Sourced from patent US20260356856A1

EXPERIMENTAL TARGET: KRas G12C (Homo sapiens, UniProt P01116, G12C)
Construct: Biotinylated KRas (corresponding to amino acids 1-169, produced at Accelegan Inc.); biotin (biotinylated); purchased Accelegan Inc
Sequence (P01116 1-169 isoform P01116-2 G12C): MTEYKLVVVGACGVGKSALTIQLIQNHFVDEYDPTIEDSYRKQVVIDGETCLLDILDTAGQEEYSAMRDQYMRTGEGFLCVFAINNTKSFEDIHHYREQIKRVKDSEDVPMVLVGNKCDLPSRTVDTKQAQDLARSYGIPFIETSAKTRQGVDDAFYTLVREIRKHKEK
EXPERIMENTAL DETAILS: KRas binding assay, TR-FRET displacement of Cy5 labelled tracer
CONDITION SUMMARY: 60-minute incubation at room temperature, 1% DMSO, pH 7.5
Protocol: This Example illustrates that exemplary compounds of the present invention bind to KRas and are capable of displacing a labeled tracer ligand occupying the KRas binding site. […] The ability of a compound to bind to KRas was measured using a TR-FRET displacement assay. […] After a 60-minute incubation at room temperature, the reaction was measured using a BMG LABTECH CLARIO star Plus via TR-FRET. […]
MEASURE: log10(IC50) (log10 of the value in nM)
Heads up, the numbers here are log10 of IC50 in nM units.

Query: Given the compound O=C(Oc1ccccc1)C1CCCN(c2nc(OCC34CCCN3CCC4)nc3c(F)c(-c4cccc5cccc(F)c45)ncc23)C1 (stereo not shown) , what is its reported log10(IC50)?
Result: 4.48

Query: Reported log10(IC50) for `CC(C)C(=O)N(C)C(=O)C1CCN(c2nc(OC[C@@]34CCCN3C[C@H](F)C4)nc3c(F)c(-c4ccc(F)c5sc(N)c(C#N)c45)c(Cl)cc23)CC1` : what is it?
Result: 0.85

Query: Given the entry CCc1c(F)ccc2cc(O)cc(-c3ncc4c(N5CC6CC(C(=O)N(C)C(C)=O)C6C5)nc(OC[C@@]56CCCN5C[C@H](F)C6)nc4c3F)c12 (stereo partly shown) , report its measured log10(IC50).
Result: 2.94

Query: Requested field: log10(IC50). Item: `CN(CCCC(=O)Oc1c(F)cccc1F)c1nc(OC[C@@]23CCCN2C[C@H](F)C3)nc2c(F)c(-c3ccc(F)c4sc(N)c(C#N)c34)c(Cl)cc12`
Result: 0.48

Query: Value lookup for log10(IC50); key = CCc1c(F)ccc2cc(O)cc(-c3ncc4c(N5CC6(C(=O)n7ccc(C)n7)CCCC5C6)nc(OC[C@@]56CCCN5C[C@H](F)C6)nc4c3F)c12 (stereo partly shown)
Result: 2.56

Query: Which log10(IC50) is listed for `C=CC1(C(=O)n2ccc(C)n2)CCN(c2nc(OC[C@@]34CCCN3C[C@H](F)C4)nc3c(F)c(-c4cc(O)cc5ccc(F)c(CC)c45)ncc23)CC1` ?
Result: 2.40

Query: log10(IC50) for CCc1c(F)ccc2cc(O)cc(-c3ncc4c(N5CC[C@H]6[C@@H](C5)[C@H]6C(=O)n5ccc(C)n5)nc(OC[C@@]56CCCN5C[C@H](F)C6)nc4c3F)c12 [Example 156] ?
Result: 1.95

Query: What log10(IC50) value was documented for this compound, CC(=O)N(C)C(=O)[C@H]1C[C@@H]2CN(c3nc(OC[C@@]45CCCN4C[C@H](F)C5)nc4c(F)c(-c5ccc(F)c6sc(N)c(C#N)c56)c(Cl)cc34)C[C@@H]2C1 (atropisomer, axis not shown; (aR)) ?
Result: 0.85

Query: State the recorded log10(IC50) for this entry: `CCc1c(F)ccc2cc(O)cc(N3CCc4c(nc(OC[C@@]56CCCN5C[C@H](F)C6)nc4N(C)CCCC(=O)n4ccc(C)n4)C3)c12`
Result: 0.60

Query: Query (compound): `N#Cc1c(N)sc2c(F)ccc(-c3c(Cl)cc4c(N5CCC(C(=O)n6cccn6)CC5)nc(OC[C@@]56CCCN5C[C@H](F)C6)nc4c3F)c12` ; field requested: log10(IC50)
Result: 0.85

Query: Name the recorded log10(IC50) for `CN(CCCC(=O)Oc1ccc(F)cc1)c1nc(OC[C@@]23CCCN2C[C@H](F)C3)nc2c(F)c(-c3ccc(F)c4sc(N)c(C#N)c34)c(Cl)cc12` .
Result: 0.60

Query: // lookup log10(IC50) for `COC(=O)[C@@H]1[C@@H]2CC[C@H]1CN(c1nc(OCC34CCCN3CCC4)nc3c(F)c(-c4cccc5cccc(F)c45)ncc13)C2`
Result: 4.30

Query: What does the record list as log10(IC50) for CCc1c(F)ccc2cc(O)cc(-c3ncc4c(N(C)CCN(C)C(=O)n5ccnn5)nc(OC[C@@]56CCCN5C[C@H](F)C6)nc4c3F)c12 (single isomer, unassigned) ?
Result: 0.60

Query: Quick one: log10(IC50) of `CN(CCCC(=O)Nc1ccccn1)c1nc(OC[C@@]23CCCN2C[C@H](F)C3)nc2c(F)c(-c3ccc(F)c4sc(N)c(C#N)c34)c(Cl)cc12` ?
Result: 0.90

Query: Would you mind telling me what log10(IC50) value was observed for `CCc1c(F)ccc2cc(O)cc(-c3ncc4c(N5CCC(C(=O)Oc6ccc(F)c(F)c6)CC5)nc(OC[C@@]56CCCN5C[C@H](F)C6)nc4c3F)c12` ?
Result: 0.95

Query: # get_value(readout='log10(IC50)', item= CCc1c(F)ccc2cc(O)cc(-c3ncc4c(N5CCN(C(=O)n6nccn6)CC5)nc(OC[C@@]56CCCN5C[C@H](F)C6)nc4c3F)c12 (single isomer, unassigned) )
Result: 1.86

Query: // lookup log10(IC50) for `CCc1c(F)ccc2cc(O)cc(-c3ncc4c(N5C[C@H]6C[C@@H](C5)[C@H](C(=O)n5ccc(C)n5)C6)nc(OC[C@@]56CCCN5C[C@H](F)C6)nc4c3F)c12`
Result: 3.68

Query: Returns the measured log10(IC50) for the input compound. Input: `C=Cc1ccn(C(=O)C2CCN(c3nc(OC[C@@]45CCCN4C[C@H](F)C5)nc4c(F)c(-c5cc(O)cc6ccc(F)c(CC)c56)ncc34)CC2)n1`
Result: 1.76

Query: Reported log10(IC50) for N#Cc1c(N)sc2c(F)ccc(-c3c(Cl)cc4c(N5CCCC(C(=O)n6ccc(C7CC7)n6)CC5)nc(OC[C@@]56CCCN5C[C@H](F)C6)nc4c3F)c12 (stereo partly shown) : what is it?
Result: 1.11

Query: Quick one: log10(IC50) of `N#Cc1cccc(OC(=O)[C@@H]2[C@@H]3CC[C@H]2CN(c2nc(OCC45CCCN4CCC5)nc4c(F)c(-c5cccc6cccc(F)c56)ncc24)C3)c1` ?
Result: 4.98
